Reported IC50 values for a set of compounds
# tested_target: human cathepsin F (Homo sapiens)
# Sequence (Q9UBX1 271-484): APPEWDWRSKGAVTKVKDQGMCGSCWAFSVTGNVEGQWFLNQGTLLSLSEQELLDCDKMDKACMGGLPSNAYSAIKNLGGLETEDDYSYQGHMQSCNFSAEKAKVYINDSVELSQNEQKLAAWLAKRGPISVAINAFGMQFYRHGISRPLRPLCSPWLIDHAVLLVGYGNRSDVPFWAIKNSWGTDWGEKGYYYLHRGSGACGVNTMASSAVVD
# test_method_notes: Cathepsin F Assay
# Type: biochemical
# condition_summary: IP from dose response curve; Z-Phe-Arg-AMC substrate, pH 5.5; read-out: hCat F (IP (nM))

| compound | IC50 / nM |
| --- | --- |
| N#CC1(NC(=O)[C@@H]2CCCC[C@H]2c2nn(-c3ccncc3)cc2-c2ccc(N3CCS(=O)(=O)CC3)cc2)CC1 [Example 163] | 237 |
| N#CC1(NC(=O)[C@@H]2CCCC[C@H]2c2nn(-c3ccc(F)cc3)cc2-c2ccc(C(=O)N3CCC(O)CC3)cc2)CC1 [Example 90] | 1760 |
| Cc1ccc(-n2cc(-c3ccc(N4CCS(=O)(=O)CC4)cc3)c([C@@H]3CCCC[C@H]3C(=O)NC3(C#N)CC3)n2)cn1 [Example 167] | 602 |
| CN=S1(=O)CCN(c2ccc(-c3cn(-c4ncccc4F)nc3[C@@H]3CC(F)(F)CC[C@H]3C(=O)N[C@@H](C)C#N)cc2)CC1 [Example 46] | 6620 |
| N#CC1(NC(=O)[C@@H]2CCCC[C@H]2c2nn(-c3cccnc3)cc2-c2ccc(N3CCS(=O)(=O)CC3)cc2)CC1 [Example 164] | 697 |
| N#Cc1ccccc1-n1cc(-c2ccc(N3CCS(=O)(=O)CC3)cc2)c([C@@H]2CCCC[C@H]2C(=O)NC2(C#N)CC2)n1 [Example 91] | 1020 |
| N#CC(CC(F)(F)F)NC(=O)[C@@H]1CC(F)(F)CC[C@H]1c1nn2ccccc2c1-c1ccc(N2CCS(=O)(=O)CC2)cc1 (single isomer, unassigned) [Example 74] | 252 |
| N#CN=S1(=O)CCN(c2ccc(-c3cn(-c4ccc(F)cc4)nc3[C@@H]3CCCC[C@H]3C(=O)NC3(C#N)CC3)cc2)CC1 [Example 19] | 809 |
| N#CC1(NC(=O)[C@@H]2CCCC[C@H]2c2nn(-c3cncc(Cl)c3)cc2-c2ccc(N3CCS(=O)(=O)CC3)cc2)CC1 [Example 8] | 215 |
| N#CCNC(=O)C1CC(F)(F)CCC1c1nn(-c2ccc(F)cc2)cc1-c1ccc(N2CCS(=O)(=O)CC2)cc1 (racemic) [Example 79] | 17 |
| N#CC1(NC(=O)[C@@H]2CCCC[C@H]2c2nn(-c3ccc(F)cc3)cc2-c2ccc(N3CCS(=O)(=O)CC3)cc2)CC1 [Example 85] | 352 |
| Cc1c(-c2ccc(N3CCS(=O)(=O)CC3)cc2)c([C@@H]2CCCC[C@H]2C(=O)N[C@H](C#N)C(C)C)nn1-c1ncccc1F [Example 43] | 4550 |
| Cc1c(-c2ccc(N3CCS(=O)(=O)CC3)cc2)c([C@@H]2CCC(F)(F)C[C@H]2C(=O)N[C@H](C#N)C(C)C)nn1-c1ccc(F)cn1 [Example 31] | 115 |
| CN=S1(=O)CCN(c2ccc(-c3c([C@@H]4CCCC[C@H]4C(=O)N[C@H](C#N)C(C)C)nn(-c4ncccc4F)c3C)cc2)CC1 [Example 48] | 7350 |
| CN=S1(=O)CCN(c2ccc(-c3cn(-c4ccc(F)cc4)nc3[C@@H]3CC[C@H](F)C[C@H]3C(=O)NC3(C#N)CC3)cc2)CC1 [Example 15] | 1780 |
| CS(=O)(=O)c1ccc(-c2cn(-c3ccccc3)nc2C2CCC(F)(F)CC2C(=O)NCC#N)cc1 (racemic) [Example 76] | 11 |
| N#CC1(NC(=O)[C@@H]2CC(F)(F)CC[C@H]2c2nn(-c3ccc(F)cn3)c(CO)c2-c2ccc(N3CCS(=O)(=O)CC3)cc2)CC1 [Example 68] | 125 |
| CN=S1(=O)CCN(c2ccc(-c3cn(-c4ccc(F)cn4)nc3[C@@H]3CC[C@H](F)C[C@H]3C(=O)NC3(C#N)CC3)cc2)CC1 [Example 17] | 1410 |
| N#CC1(NC(=O)[C@@H]2CCCC[C@H]2c2nn(-c3cccc(C(F)(F)F)c3)cc2-c2ccc(N3CCS(=O)(=O)CC3)cc2)CC1 [Example 124] | 588 |
| CC(C#N)NC(=O)[C@@H]1CCC(F)(F)C[C@H]1c1nn(-c2ccc(F)cn2)cc1-c1ccc(N2CCS(=N)(=O)CC2)cc1 (single isomer, unassigned) [Example 23] | 348 |
| CC(C)N=S1(=O)CCN(c2ccc(-c3cn(-c4ccc(F)cc4)nc3[C@@H]3CCCC[C@H]3C(=O)NC3(C#N)CC3)cc2)CC1 [Example 140] | 782 |
| C[C@@H](C#N)NC(=O)[C@@H]1CC(F)(F)CC[C@H]1c1nn(-c2ccc(F)cn2)c(CO)c1-c1ccc(N2CCS(=O)(=O)CC2)cc1 [Example 67] | 146 |
| N#CC1(NC(=O)[C@@H]2CCCC[C@H]2c2nn3ccccc3c2-c2ccc(N3CCS(=O)(=O)CC3)cc2)CC1 [Example 21] | 6910 |
| N#CC1(NC(=O)[C@@H]2CCCC[C@H]2c2nn(-c3ccc(C(F)(F)F)cc3)cc2-c2ccc(N3CCS(=O)(=O)CC3)cc2)CC1 [Example 121] | 649 |

Where these numbers come from: patent US9656990B2
